molecular target: AChE (Homo sapiens)
measured parameter: Ki (µM)

• N#CC1=C(N)NNC(Nc2ccc(O)cc2)=C([N+](=O)[O-])C12C(=O)Nc1ccc([N+](=O)[O-])cc12 (stereo not shown) = 0.044

---

target: AChE (Homo sapiens, UniProt P22303); assay: biochemical
Sequence (P22303 32-614): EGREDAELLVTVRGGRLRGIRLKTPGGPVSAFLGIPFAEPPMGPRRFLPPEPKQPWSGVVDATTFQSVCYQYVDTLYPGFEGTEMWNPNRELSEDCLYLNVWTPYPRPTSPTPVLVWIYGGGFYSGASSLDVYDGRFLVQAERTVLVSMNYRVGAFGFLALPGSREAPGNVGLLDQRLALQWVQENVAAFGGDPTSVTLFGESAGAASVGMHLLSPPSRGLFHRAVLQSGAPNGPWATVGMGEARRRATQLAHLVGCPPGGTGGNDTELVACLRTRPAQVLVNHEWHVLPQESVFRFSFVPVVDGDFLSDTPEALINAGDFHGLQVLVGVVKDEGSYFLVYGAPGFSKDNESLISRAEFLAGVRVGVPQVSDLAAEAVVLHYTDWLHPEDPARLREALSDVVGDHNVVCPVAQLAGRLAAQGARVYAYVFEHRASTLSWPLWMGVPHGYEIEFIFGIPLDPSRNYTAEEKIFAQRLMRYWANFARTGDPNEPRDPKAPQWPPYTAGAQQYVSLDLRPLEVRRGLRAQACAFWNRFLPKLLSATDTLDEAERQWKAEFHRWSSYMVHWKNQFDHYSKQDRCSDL
The following compounds are shown together with reported IC50 values.
measured parameter: IC50 (µM)

* Cc1ccccc1NC1=C([N+](=O)[O-])C2(C(=O)Nc3ccc([N+](=O)[O-])cc32)C(C#N)=C(N)NN1 (stereo not shown) | 22.4
* COc1ccc(OC)c(NC2=C([N+](=O)[O-])C3(C(=O)Nc4ccc([N+](=O)[O-])cc43)C(C#N)=C(N)NN2)c1 (stereo not shown) | 20.9
* N#CC1=C(N)NNC(Nc2ccc(O)cc2)=C([N+](=O)[O-])C12C(=O)Nc1ccc([N+](=O)[O-])cc12 (stereo not shown) | 3.98
* Cc1ccc(NC2=C([N+](=O)[O-])C3(C(=O)Nc4ccc([N+](=O)[O-])cc43)C(C#N)=C(N)NN2)cc1 (stereo not shown) | 5.88

---

target: AChE (Homo sapiens); experiment: biochemical; conditions: read-out: AChE % inhibition at 50 µM
measured parameter: inhibition at 50 µM (%)

* Cc1ccc(NC2=C([N+](=O)[O-])C3(C(=O)Nc4ccc([N+](=O)[O-])cc43)C(C#N)=C(N)NN2)cc1C (stereo not shown) | 48.6
* Cc1ccc(NC2=C([N+](=O)[O-])C3(C(=O)Nc4ccc([N+](=O)[O-])cc43)C(C#N)=C(N)NN2)cc1 (stereo not shown) | 66.3
* Cc1ccccc1NC1=C([N+](=O)[O-])C2(C(=O)Nc3ccc([N+](=O)[O-])cc32)C(C#N)=C(N)NN1 (stereo not shown) | 59.6
* COc1ccc(OC)c(NC2=C([N+](=O)[O-])C3(C(=O)Nc4ccc([N+](=O)[O-])cc43)C(C#N)=C(N)NN2)c1 (stereo not shown) | 61.7
* COc1ccc(NC2=C([N+](=O)[O-])C3(C(=O)Nc4ccc([N+](=O)[O-])cc43)C(C#N)=C(N)NN2)cc1 (stereo not shown) | 46.1
* N#CC1=C(N)NNC(Nc2ccc(Cl)cc2)=C([N+](=O)[O-])C12C(=O)Nc1ccc([N+](=O)[O-])cc12 (stereo not shown) | 24.6
* N#CC1=C(N)NNC(Nc2ccc(O)cc2)=C([N+](=O)[O-])C12C(=O)Nc1ccc([N+](=O)[O-])cc12 (stereo not shown) | 87.4

---

The following compounds are shown together with reported inhibition at 50 µM values.
biological target: AChE (Homo sapiens); experiment: biochemical; details: 50 µM; mean ± S.E of three to five independent experiments; read-out: AChE % inhibition at 50 µM
measured parameter: inhibition at 50 µM (%)

- N#CC1=C(N)NNC(Nc2ccc(Cl)cc2)=C([N+](=O)[O-])C12C(=O)Nc1ccc(Cl)cc12 (stereo not shown) [Compound 5e]: 13.4
- N#CC1=C(N)NNC(Nc2ccc(O)cc2)=C([N+](=O)[O-])C12C(=O)Nc1c(Br)cc(Br)cc12 (stereo not shown) [Compound 5r]: 46.7
- Cc1ccccc1NC1=C([N+](=O)[O-])C2(C(=O)Nc3c(C(F)(F)F)cccc32)C(C#N)=C(N)NN1 (stereo not shown) [Compound 5t]: 24.7
- COc1ccc(NC2=C([N+](=O)[O-])C3(C(=O)Nc4c(Cl)cc(Cl)cc43)C(C#N)=C(N)NN2)cc1 (stereo not shown) [Compound 5n]: 35.4
